System: Neutrophil
Assay: Inhibition of PMA-induced superoxide formation in Sprague-Dawley rat neutrophil
Type: functional, cell-based
experimental readout: pIC50
Here pIC50 is given on a logarithmic scale as minus log10 of the concentration in mol/L.

stdin: # lookup: pIC50 of CN1CCN(CCCN2c3ccccc3Sc3ccc(C(F)(F)F)cc32)CC1 [TRIFLUOPERAZINE]
stdout: 5.57

###

Test system: Neutrophil
Experiment: Formation of PMA-induced superoxide in Sprague-Dawley rat neutrophil at 10 uM per 10^6 cells after 30 min
Assay type: functional
experimental readout: Activity (nmol)
Kindly answer with a numeric value in nmol, unit omitted.

Solved cases (5 shown):
- compound: "O=C/C=C/c1ccccc1OCc1ccccc1"
  Activity [nmol]: 8.61
- compound: "O=C/C=C/c1ccccc1OCc1ccccc1Cl"
  Activity [nmol]: 9.86
- compound: "O=C/C=C/c1ccccc1OCc1ccccc1F"
  Activity [nmol]: 9.45
- compound: "COc1ccc(OCc2cccc(Cl)c2)c(/C=C/C=O)c1"
  Activity [nmol]: 10.3
- compound: "O=C/C=C/c1ccccc1OCc1ccc(Cl)cc1"
  Activity [nmol]: 9.41

stdin: Reported Activity, compound COc1ccc(OCc2ccc(Cl)cc2)c(/C=C/C=O)c1 : ____
stdout: 9.39

stdin: Here is the next compound: COc1ccc(OCc2ccccc2Cl)c(/C=C/C=N/O)c1
stdout: 5.27

###

Tested on: Neutrophil
Experiment: Formation of PMA-induced superoxide in Sprague-Dawley rat neutrophil at 10 uM per 10^6 cells after 30 min
Format: functional
Known Activity of a selection of compounds
// note: answer is a bare numeric in nmol

# count of solved cases: 3
- compound: "COc1ccc(OCc2ccc(Cl)cc2)c(/C=C/C=N/O)c1"
  subject of test: "Neutrophil"
  reported measurement: 11.9
- compound: "COc1ccc(OCc2ccccc2)c(/C=C/C=O)c1"
  subject of test: "Neutrophil"
  reported measurement: 9.42
- compound: "O=C/C=C/c1ccccc1OCc1ccc(Cl)cc1Cl"
  subject of test: "Neutrophil"
  reported measurement: 9.29

stdin: Entry under review: COc1ccc(COc2ccccc2/C=C/C=O)cc1 . Reported Activity?
stdout: 9.45

stdin: Same question, O=C/C=C/c1ccccc1OCc1cccc(Cl)c1Cl this time
stdout: 6.72

stdin: How about this compound: O=C/C=C/c1ccccc1OCc1ccc(Cl)c(Cl)c1
stdout: 7.77

stdin: Entry to check: O=C/C=C/c1ccccc1OCc1cccc(Cl)c1
stdout: 9.85

stdin: One more compound: Cc1ccc(COc2ccccc2/C=C/C=O)cc1
stdout: 8.53

stdin: Lookup O=C/C=C/c1ccccc1OCc1c(Cl)cccc1Cl
stdout: 11.4

stdin: Now the compound O=C/C=C/c1ccccc1OCc1cccc(F)c1
stdout: 8.07

stdin: Thanks! And COc1ccc(OCc2ccccc2Cl)c(/C=C/C=O)c1 ?
stdout: 8.94

stdin: # iterate: COc1ccc(OCc2ccccc2)c(/C=C/C=N/O)c1
stdout: 4.97

Attribution: ChEMBL document CHEMBL1147710
